- measured.target: Integrin alpha-V/beta-3 (Homo sapiens, UniProt P05106+P06756)
- Sequence (P05106 27-788 limits assumed): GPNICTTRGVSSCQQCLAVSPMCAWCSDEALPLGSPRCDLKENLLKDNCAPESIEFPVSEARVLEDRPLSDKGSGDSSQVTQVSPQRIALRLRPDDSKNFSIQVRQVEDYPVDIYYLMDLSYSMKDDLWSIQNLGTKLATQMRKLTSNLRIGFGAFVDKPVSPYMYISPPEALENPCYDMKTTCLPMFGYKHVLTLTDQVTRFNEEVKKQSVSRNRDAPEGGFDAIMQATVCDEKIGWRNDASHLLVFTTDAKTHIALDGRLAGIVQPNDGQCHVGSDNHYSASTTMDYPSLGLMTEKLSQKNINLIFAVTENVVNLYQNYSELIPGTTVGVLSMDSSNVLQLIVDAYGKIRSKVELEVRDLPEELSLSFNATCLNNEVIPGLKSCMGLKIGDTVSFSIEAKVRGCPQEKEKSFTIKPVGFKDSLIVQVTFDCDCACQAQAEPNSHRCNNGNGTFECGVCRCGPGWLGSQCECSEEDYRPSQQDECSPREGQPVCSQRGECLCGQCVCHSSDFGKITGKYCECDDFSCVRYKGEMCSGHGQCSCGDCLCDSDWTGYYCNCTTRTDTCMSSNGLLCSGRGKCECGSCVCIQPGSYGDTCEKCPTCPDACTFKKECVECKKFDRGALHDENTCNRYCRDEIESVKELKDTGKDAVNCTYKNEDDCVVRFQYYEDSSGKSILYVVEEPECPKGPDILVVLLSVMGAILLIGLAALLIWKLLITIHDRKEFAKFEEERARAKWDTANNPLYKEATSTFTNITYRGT
- Sequence (P06756 31-889 limits assumed): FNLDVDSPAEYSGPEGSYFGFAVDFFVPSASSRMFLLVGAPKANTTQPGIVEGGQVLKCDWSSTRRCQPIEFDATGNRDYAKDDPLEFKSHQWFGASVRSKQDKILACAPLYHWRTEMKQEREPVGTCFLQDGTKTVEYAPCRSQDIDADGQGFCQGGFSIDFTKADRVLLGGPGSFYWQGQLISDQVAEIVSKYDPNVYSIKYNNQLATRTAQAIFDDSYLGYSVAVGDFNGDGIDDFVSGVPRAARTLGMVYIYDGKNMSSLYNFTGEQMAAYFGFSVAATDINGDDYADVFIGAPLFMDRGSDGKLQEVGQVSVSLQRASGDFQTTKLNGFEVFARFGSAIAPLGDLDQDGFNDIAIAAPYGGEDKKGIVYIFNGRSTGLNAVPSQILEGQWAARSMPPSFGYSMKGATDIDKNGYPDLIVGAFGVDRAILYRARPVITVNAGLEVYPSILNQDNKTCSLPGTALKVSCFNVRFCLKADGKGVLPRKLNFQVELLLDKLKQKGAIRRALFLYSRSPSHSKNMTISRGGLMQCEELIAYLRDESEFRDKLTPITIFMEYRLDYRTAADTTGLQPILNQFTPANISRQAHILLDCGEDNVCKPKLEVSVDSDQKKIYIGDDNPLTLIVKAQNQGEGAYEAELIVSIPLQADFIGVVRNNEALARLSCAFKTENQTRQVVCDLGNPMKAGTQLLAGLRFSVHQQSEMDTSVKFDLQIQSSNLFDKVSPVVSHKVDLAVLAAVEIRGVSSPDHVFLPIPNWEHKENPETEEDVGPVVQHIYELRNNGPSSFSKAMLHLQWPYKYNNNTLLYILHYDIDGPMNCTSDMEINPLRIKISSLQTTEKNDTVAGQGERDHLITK
- Sequence (P06756 891-1048 limits assumed): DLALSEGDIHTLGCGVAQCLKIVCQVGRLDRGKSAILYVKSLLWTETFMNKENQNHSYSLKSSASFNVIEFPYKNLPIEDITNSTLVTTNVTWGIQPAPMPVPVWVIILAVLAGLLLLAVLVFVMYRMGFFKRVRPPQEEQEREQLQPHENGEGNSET
- procedure.summary: Binding affinity towards alpha V/beta3 receptor by solid-phase receptor binding assays (SPRA)
- Type: protein-complex assay
value.kind: IC50 (nM)
Just the number please, in nM, no unit attached.

{"columns": ["compound", "measured.target", "result"],
 "data": [
  ["COc1cc(NC(=O)c2cccc(NC3=NCCCN3)c2)ccc1OCC(=O)O", "Integrin alpha-V/beta-3 (Homo sapiens, UniProt P05106+P06756)", 0.43],
  ["CC(C)(C)NC(=O)NC(Cc1ccc(NC(=O)c2cccc(N=C(N)N)c2)cc1)C(=O)O (configuration not stated)", "Integrin alpha-V/beta-3 (Homo sapiens, UniProt P05106+P06756)", 3.2],
  ["COc1cc(NC(=O)c2cccc(N=C(N)N)c2)ccc1OCC(=O)O", "Integrin alpha-V/beta-3 (Homo sapiens, UniProt P05106+P06756)", 3.2],
  ["O=C(Nc1ccc(CC(NS(=O)(=O)c2ccccc2)C(=O)O)cc1)c1cccc(NC2=NCCCN2)c1 (configuration not stated)", "Integrin alpha-V/beta-3 (Homo sapiens, UniProt P05106+P06756)", 0.11]
]}

Value lookup for IC50; key = `CCc1cc(/C=C/C(=O)O)ccc1NC(=O)c1cccc(NC(=N)N)c1` 3

For N=C(N)Nc1cccc(C(=O)Nc2ccc(C3CC3C(=O)O)cc2)c1 (configuration not stated) then? 31

For COc1cc(NC(=O)c2cccc(NC3=NCCCN3)c2)ccc1CC(NC(=O)OC(C)C)C(=O)O (configuration not stated) then? 0.16

For COc1cc(NC(=O)c2cccc(NC(=N)N)c2)ccc1CC(NC(=O)OC(C)C)C(=O)O (configuration not stated) then? 1.1

For `O=C(O)CCc1ccc(NC(=O)c2cccc(NC3=NCCCN3)c2)cc1C(=O)O` then? 6.1

For `O=C(O)/C=C/c1ccc(NC(=O)c2cccc(NC3=NCCCN3)c2)cc1Cl` then? 3.9

For `N=C(N)Nc1cccc(C(=O)Nc2ccc(/C=C/C(=O)O)c(Cl)c2)c1` then? 23

For `COc1cc(NC(=O)c2cccc(NC3=NCCCN3)c2)ccc1/C=C/C(=O)O` then? 2.2
